# TEST_TARGET: SMARCA4 (Homo sapiens, UniProt P51532)
# Sequence (P51532 whole entry): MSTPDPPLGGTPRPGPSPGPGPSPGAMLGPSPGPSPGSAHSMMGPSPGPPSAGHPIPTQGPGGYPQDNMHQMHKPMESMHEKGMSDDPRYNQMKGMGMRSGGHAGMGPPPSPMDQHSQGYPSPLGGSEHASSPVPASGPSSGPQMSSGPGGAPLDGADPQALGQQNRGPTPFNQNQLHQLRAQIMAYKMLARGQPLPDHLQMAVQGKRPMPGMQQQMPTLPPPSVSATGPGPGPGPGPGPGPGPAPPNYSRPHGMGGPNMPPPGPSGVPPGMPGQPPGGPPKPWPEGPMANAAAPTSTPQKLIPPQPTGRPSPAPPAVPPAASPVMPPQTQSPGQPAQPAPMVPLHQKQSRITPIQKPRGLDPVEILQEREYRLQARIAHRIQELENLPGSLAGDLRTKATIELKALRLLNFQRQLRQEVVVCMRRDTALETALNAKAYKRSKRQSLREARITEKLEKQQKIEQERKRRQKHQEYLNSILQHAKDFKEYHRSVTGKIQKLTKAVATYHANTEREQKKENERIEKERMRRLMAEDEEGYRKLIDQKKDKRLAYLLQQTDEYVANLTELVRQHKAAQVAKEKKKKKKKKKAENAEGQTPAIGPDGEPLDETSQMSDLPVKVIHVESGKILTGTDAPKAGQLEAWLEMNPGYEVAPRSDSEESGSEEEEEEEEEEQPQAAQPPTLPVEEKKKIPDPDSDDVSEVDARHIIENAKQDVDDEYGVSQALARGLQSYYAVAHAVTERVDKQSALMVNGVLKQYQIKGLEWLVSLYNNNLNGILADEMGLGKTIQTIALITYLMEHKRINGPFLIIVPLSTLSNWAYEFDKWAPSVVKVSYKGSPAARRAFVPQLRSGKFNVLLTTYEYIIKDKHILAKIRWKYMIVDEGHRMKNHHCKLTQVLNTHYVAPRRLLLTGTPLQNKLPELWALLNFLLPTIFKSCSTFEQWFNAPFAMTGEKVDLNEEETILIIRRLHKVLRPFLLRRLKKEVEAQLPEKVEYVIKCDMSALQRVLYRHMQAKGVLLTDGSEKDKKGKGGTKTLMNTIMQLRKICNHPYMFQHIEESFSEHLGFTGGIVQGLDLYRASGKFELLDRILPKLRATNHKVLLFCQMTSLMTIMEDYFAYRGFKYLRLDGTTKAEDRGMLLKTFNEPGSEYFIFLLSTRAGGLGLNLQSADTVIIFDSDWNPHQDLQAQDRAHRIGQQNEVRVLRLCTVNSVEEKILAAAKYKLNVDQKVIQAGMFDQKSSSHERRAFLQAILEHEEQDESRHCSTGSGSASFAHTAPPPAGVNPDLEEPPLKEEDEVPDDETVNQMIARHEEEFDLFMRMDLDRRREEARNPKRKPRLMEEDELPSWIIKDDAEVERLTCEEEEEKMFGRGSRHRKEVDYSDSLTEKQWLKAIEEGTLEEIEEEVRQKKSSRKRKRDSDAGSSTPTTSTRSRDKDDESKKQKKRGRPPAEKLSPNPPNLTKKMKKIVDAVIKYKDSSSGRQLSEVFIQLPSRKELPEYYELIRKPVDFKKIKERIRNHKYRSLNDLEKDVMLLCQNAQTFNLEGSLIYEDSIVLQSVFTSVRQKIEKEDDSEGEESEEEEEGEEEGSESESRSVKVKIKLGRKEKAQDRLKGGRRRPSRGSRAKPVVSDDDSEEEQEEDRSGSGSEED
# ASSAY_REMARKS: HiBit assay in engineered HT1080 CRISPR knock-in cell, 6 hrs (B series), SMARCA4
# Format: cell-based
# CONDITION_LABEL: HT-1080, HT1080 CRISPR knock-in cells, 6 hrs incubation; read-out: SMARC A4 HT1080 HiBit Dmax(%)
# Description: The HiBit assay was performed using engineered HT1080 CRISPR knock-in cell utilizing the Nano-Glo HiBiT Lytic Detection System from Promega, Cat #N3040. Compounds were transferred, 25 nL DMSO or test compounds (final DMSO @ 0.1%) to intermediate plates (Corning3570) using ECHO550. […] After briefly centrifugation (2000 rpm 1 mins), plate was read on Envision (Ultrasensitive luminescence model).
ENDPOINT: Dmax

QUERY: Recall the recorded Dmax for Cc1ncsc1-c1ccc2c(c1)CC[C@H]2NC(=O)[C@@H]1C[C@@H](O)CN1C(=O)[C@@H](n1cc([C@H]2CC[C@H](CN3CCC(c4ccc5c(c4)-n4c(nc(=O)c6c(Cl)cccc64)C5(C)C)CC3)CC2)nn1)C(C)(C)C [Compound B122] with SMARCA4 (Homo sapiens, UniProt P51532) and state it.
RESULT: < 50%

QUERY: Recall the recorded Dmax for Cc1ncsc1-c1ccc([C@H](C)NC(=O)[C@@H]2C[C@@H](O)CN2C(=O)[C@H](C(C)C)n2cc(CCCN3CCC(c4ccc5c(c4)-n4c(nc(=O)c6c(Cl)cccc64)C5(C)C)CC3)nn2)cc1 [Compound B58] with SMARCA4 (Homo sapiens, UniProt P51532) and state it.
RESULT: 70 to 90%

QUERY: Recall the recorded Dmax for Cc1ncsc1-c1ccc([C@H](CN2CCOCC2)NC(=O)[C@@H]2C[C@@H](O)CN2C(=O)[C@@H](c2cc(N3CCC(c4ccc5c(c4)C(C)(C)c4nc(=O)c6c(Cl)cccc6n4-5)CC3)no2)C(C)C)cc1 [Compound B110] with SMARCA4 (Homo sapiens, UniProt P51532) and state it.
RESULT: 70 to 90%

QUERY: Recall the recorded Dmax for Cc1ncsc1-c1ccc([C@H](C)NC(=O)[C@@H]2C[C@@H](O)CN2C(=O)[C@H](C(C)C)n2cc(CCN3CCC(c4ccc5c(c4)-n4c(nc(=O)c6c(Cl)cccc64)C5(C)C)CC3)nn2)cc1 [Compound B36] with SMARCA4 (Homo sapiens, UniProt P51532) and state it.
RESULT: < 50%

QUERY: Recall the recorded Dmax for Cc1cc(C(C(=O)N2C[C@H](O)C[C@H]2C(=O)N[C@@H](C)c2ccc(-c3scnc3C#CCOCCOCCN3CCC(c4ccc5c(c4)-n4c(nc(=O)c6c(Cl)cccc64)C5(C)C)CC3)cc2)C(C)C)on1 (stereo partly drawn) [Compound B104] with SMARCA4 (Homo sapiens, UniProt P51532) and state it.
RESULT: 70 to 90%

QUERY: Recall the recorded Dmax for Cc1ncsc1-c1ccc([C@H](C)NC(=O)[C@@H]2C[C@@H](O)CN2C(=O)[C@H](C(C)C)n2cc(C3CCC(CN4CCC(c5ccc6c(c5)C(C)(C)c5nc(=O)c7c(Cl)cccc7n5-6)CC4)CC3)nn2)cc1 (stereo partly drawn) [Compound B19] with SMARCA4 (Homo sapiens, UniProt P51532) and state it.
RESULT: 70 to 90%

QUERY: Recall the recorded Dmax for Cc1ncsc1-c1ccc([C@H](CC(=O)NCC2CCC(N3CCC(c4ccc5c(c4)-n4c(nc(=O)c6c(Cl)cccc64)C5(C)C)CC3)CC2)NC(=O)[C@@H]2C[C@@H](O)CN2C(=O)[C@@H](NC(=O)C2(F)CC2)C(C)(C)C)cc1 (stereo partly drawn) [Compound B53] with SMARCA4 (Homo sapiens, UniProt P51532) and state it.
RESULT: 50 to 69%

QUERY: Recall the recorded Dmax for Cc1ncsc1-c1ccc([C@H](C)NC(=O)[C@@H]2C[C@@H](O)CN2C(=O)[C@@H](n2cc(C34CC(C(=O)N5CCC(c6ccc7c(c6)-n6c(nc(=O)c8c(Cl)cccc86)C76CCCCC6)CC5)(C3)C4)nn2)C(C)(C)C)cc1 [Compound B169] with SMARCA4 (Homo sapiens, UniProt P51532) and state it.
RESULT: 50 to 69%

QUERY: Recall the recorded Dmax for Cc1ncsc1-c1ccc([C@H](C)NC(=O)[C@@H]2C[C@@H](O)CN2C(=O)[C@@H](c2cc(OCC3CCC(N4CCC(c5cccc6c5C(C)(C)c5nc(=O)c7c(Cl)cccc7n5-6)CC4)CC3)no2)C(C)C)cc1 (stereo partly drawn) [Compound B100] with SMARCA4 (Homo sapiens, UniProt P51532) and state it.
RESULT: < 50%
